Target: UniProt:P36888
Sequence (P36888 27-993): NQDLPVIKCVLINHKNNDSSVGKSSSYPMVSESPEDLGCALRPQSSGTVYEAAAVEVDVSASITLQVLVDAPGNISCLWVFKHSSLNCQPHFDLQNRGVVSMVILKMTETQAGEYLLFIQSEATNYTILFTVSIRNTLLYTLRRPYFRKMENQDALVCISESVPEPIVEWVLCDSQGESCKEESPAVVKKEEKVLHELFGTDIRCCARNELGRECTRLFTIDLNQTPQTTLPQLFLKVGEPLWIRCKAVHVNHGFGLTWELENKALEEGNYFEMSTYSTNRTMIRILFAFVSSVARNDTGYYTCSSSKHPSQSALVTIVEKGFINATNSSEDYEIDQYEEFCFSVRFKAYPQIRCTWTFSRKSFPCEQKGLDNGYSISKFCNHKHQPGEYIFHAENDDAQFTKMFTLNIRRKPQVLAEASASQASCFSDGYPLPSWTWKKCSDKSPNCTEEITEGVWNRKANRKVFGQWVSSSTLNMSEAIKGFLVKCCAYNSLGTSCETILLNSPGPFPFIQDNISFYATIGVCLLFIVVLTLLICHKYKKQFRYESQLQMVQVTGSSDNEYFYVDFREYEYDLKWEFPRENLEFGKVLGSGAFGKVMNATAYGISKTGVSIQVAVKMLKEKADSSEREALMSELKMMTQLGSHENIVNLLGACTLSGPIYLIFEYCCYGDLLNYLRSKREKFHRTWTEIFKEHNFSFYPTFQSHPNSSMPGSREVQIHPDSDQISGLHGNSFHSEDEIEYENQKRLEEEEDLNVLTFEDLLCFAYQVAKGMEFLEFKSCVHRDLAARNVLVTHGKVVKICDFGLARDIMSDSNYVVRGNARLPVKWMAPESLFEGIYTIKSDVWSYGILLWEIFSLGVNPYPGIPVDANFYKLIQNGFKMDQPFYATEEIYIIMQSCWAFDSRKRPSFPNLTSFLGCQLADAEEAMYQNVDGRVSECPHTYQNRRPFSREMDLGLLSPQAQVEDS
Assay: RBC HotSpot Kinase Assay, FLT3
Type: biochemical
Set-up: purchased Reaction Biology (RBC HotSpot)
Conditions: isolated kinase enzyme, 33P-ATP, P81 filter-binding
Source text: This assay uses the isolated kinase enzyme. […] Unlike kinase binding assays that measure competition for ATP, the HotSpot Kinase Assay is a functional assay that measures catalytic activity; as such it measures relative functional potency regardless of the mechanism of enzyme inhibition. This assay uses the form of the various enzymes that are easiest to express, which may not necessarily be the form of the enzyme that exist in the cell. […]
pIC50: −log10 of the molar value.
measure name: pIC50

Consider the following illustrative entries.
molecule | obs value
COc1cc2ncc(-c3nc(N[C@H]4CNCC[C@@H]4F)ncc3F)n2nc1C1CC2(CCC2)C1 [Compound 60a] | > 9.30
COc1cc2ncc(-c3nc(N[C@H]4CNCC[C@@H]4F)ncc3F)n2nc1C12CC(C1)C2 [Compound 69a] | > 9.30
COc1cc2ncc(-c3ccnc(N[C@H]4CNCC[C@@H]4F)n3)n2nc1N1CC(F)(F)C1 [Compound 18a] | > 9.30

Input: What measured pIC50 goes with CC(O)(c1ccc2ncc(-c3nc(N[C@H]4CNC[C@@H]4F)ncc3F)n2c1)C(F)(F)F (single isomer, unassigned) [Compound 38a] ?
Output: > 9.30

Input: What measured pIC50 goes with CC(C)(O)c1ccc2ncc(-c3nc(N[C@@H]4CCCNC4)ncc3F)n2c1 [Compound 48a] ?
Output: 9.00

Input: What measured pIC50 goes with CC(O)(c1ccc2ncc(-c3cncc(N[C@H]4CNCC[C@@H]4F)n3)n2c1)C(F)(F)F (single isomer, unassigned) [Compound 33a] ?
Output: 9.15

Input: What measured pIC50 goes with COc1cc2ncc(-c3nc(N[C@@H]4CCCNC4)ncc3F)n2nc1C1CC1 [Compound 3a] ?
Output: > 9.30

Input: What measured pIC50 goes with COc1cc2ncc(-c3nc(N[C@H]4CNC[C@@H]4F)ncc3Cl)n2nc1C1CC1 [Compound 101a] ?
Output: 9.10

Input: What measured pIC50 goes with CC(O)(c1ccc2ncc(-c3ccnc(N[C@H]4CNCC[C@@H]4F)n3)n2c1)C(F)(F)F (single isomer, unassigned) [Compound 25a] ?
Output: > 9.30

---

Target: UniProtKB P51617
Assay: RBC HotSpot Kinase Assay, IRAK1
Conditions: isolated kinase enzyme, 33P-ATP, P81 filter-binding
measure name: IC50 (nM)
Answer with a number only, understood to be in nM.

Consider the following illustrative entries.
molecule | study target | IC50 [nM]
COc1cc2ncc(-c3cncc(N[C@H]4CNC[C@@H]4F)n3)n2nc1C1CC(F)(F)C1 [Compound 71a] | UniProtKB P51617 | 342
FC(F)COc1cc2ncc(-c3ccnc(N[C@H]4CNCC[C@@H]4F)n3)n2nc1C1CC1 | UniProtKB P51617 | 31

Input: What measured IC50 goes with CC(O)(c1cn2c(-c3nc(N[C@H]4CNCC[C@@H]4F)ncc3F)cnc2cn1)C(F)(F)F (single isomer, unassigned) [Compound 133a] ?
Output: 15

Input: What measured IC50 goes with COc1cc2ncc(-c3ccnc(N[C@@H]4CCCNC4)n3)n2nc1C1CC2(CCC2)C1 [Compound 76a] ?
Output: 37

Input: What measured IC50 goes with COc1cc2ncc(-c3ccnc(N[C@H]4CNCC[C@@H]4F)n3)n2nc1C(C)(C)O [Compound 40a] ?
Output: 1130

Input: What measured IC50 goes with COc1cc2ncc(-c3nc(N[C@H]4CNC[C@@H]4F)ncc3F)n2nc1C12CC(C1)C2 [Compound 67a] ?
Output: 1

Input: What measured IC50 goes with COc1cc2ncc(-c3nc(N[C@H]4CNC[C@@H]4F)ncc3F)n2nc1N1CCOCC1 [Compound 119a] ?
Output: 1

---

Target: IRAK1 (Homo sapiens, UniProt P51617)
Sequence (P51617 whole entry): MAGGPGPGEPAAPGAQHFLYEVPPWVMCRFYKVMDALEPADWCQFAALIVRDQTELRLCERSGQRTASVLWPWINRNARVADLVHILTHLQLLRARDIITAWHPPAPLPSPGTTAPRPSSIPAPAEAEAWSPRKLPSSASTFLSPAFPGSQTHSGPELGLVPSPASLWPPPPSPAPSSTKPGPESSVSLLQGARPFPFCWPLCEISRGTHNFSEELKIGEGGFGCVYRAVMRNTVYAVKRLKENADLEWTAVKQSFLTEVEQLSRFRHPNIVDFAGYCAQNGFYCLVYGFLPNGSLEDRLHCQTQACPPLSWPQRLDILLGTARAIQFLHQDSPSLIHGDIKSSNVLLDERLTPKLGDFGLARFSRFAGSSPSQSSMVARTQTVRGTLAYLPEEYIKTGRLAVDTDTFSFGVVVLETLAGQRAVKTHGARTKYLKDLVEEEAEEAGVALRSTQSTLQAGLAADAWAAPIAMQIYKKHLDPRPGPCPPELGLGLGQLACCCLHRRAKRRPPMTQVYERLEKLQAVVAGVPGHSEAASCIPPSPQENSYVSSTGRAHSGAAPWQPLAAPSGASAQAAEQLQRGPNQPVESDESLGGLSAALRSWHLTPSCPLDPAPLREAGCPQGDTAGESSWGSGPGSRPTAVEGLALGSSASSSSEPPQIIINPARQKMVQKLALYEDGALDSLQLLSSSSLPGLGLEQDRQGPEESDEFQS
Experiment: RBC HotSpot Kinase Assay, IRAK1
Conditions: isolated kinase enzyme, 33P-ATP, P81 filter-binding
pIC50: −log10 of the molar value.
Binary classification by pIC50, with 8 as an inclusive lower bound for 1 (yes); all other cases are 0 (no).

compound | assigned category
COc1cc2ncc(-c3nc(N[C@H]4CNCC[C@@H]4F)ncc3F)n2nc1[C@H]1C[C@H](O)C1 [Compound 125a] | 1 (yes)
COc1cc2ncc(-c3nc(N[C@H]4CNC[C@@H]4F)ncc3F)n2nc1N1CCCC1=O [Compound 107a] | 0 (no)
COc1cc2ncc(-c3nc(N[C@H]4CNCC[C@@H]4F)ncc3F)n2nc1N1CCOCC1 [Compound 121a] | 1 (yes)
F[C@H]1CCNC[C@@H]1Nc1cncc(-c2cnc3cc(OC4CC4)c(C4CC4)nn23)n1 [Compound 13a] | 0 (no)

# input for lookup
Input: API: above_or_equal(metric=pIC50, cutoff=8) for item COc1cc2ncc(-c3cncc(N[C@H]4CNCC[C@@H]4F)n3)n2nc1C1CC(F)(F)C1 [Compound 73a]
Output: 0 (no)
